biological target: Carbonic anhydrase 12 (Homo sapiens, UniProt O43570);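 further: Stopped-flow CO2 hydration assay with phenol red indicator, 15 min, measuring inhibition of human CA XII enzymatic activity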
Sequence (O43570 whole entry): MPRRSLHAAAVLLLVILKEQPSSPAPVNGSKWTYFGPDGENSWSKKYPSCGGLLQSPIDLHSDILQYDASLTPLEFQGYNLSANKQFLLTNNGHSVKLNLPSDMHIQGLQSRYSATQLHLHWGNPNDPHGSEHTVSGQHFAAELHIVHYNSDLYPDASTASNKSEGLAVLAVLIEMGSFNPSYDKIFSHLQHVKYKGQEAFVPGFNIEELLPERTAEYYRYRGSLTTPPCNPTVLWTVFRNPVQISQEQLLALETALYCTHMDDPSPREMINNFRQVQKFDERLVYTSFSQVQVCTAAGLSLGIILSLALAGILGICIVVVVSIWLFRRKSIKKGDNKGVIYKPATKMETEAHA
measure-name: Ki (nM)

[[record]]
compound = "NS(=O)(=O)c1cc(-c2nc(-c3ccccc3)no2)cs1"
measure_name = "Ki"
readout_unit = "nM"
reported = 9.8

[[record]]
compound = "COc1cc(S(N)(=O)=O)ccc1-c1noc(-c2ccccc2)n1"
measure_name = "Ki"
readout_unit = "nM"
reported = 33.1

[[record]]
compound = "NS(=O)(=O)c1ccc(-c2noc(-c3cccs3)n2)cc1"
measure_name = "Ki"
readout_unit = "nM"
reported = 8.3


P: NS(=O)(=O)c1cc(-c2noc(C3CC3)n2)cs1
Q: NS(=O)(=O)c1ccc(-c2noc(C3CC3)n2)cc1
**Q:** Given the two records P and Q , choose the one whose Ki value is lower. Your answer should be the label of the entry you select.
**A:** P
(P: 9.2 nM, Q: 97.1 nM)
